Attribution: PubChem BioAssay (NCATS)

experiment: Drug repurposing screens with cells derived from glioblastoma tumor samples (AID 1345199); details: GBM patient neurospheres viability, ATP luminescence, 48 h; tumour line D; also: potency is read from the fitted curve at half-maximal effect; nearly all actives have a fitted effect of over 40% in size
Records with an inconclusive call do not appear. Active and inactive are the calls of the source. Calls follow the shape of the dose curve; as a rule, active = well fitted inhibition curve with a large enough effect; inconclusive = small, poorly fitted or top-dose-only effect; inactive = flat fitted curve, though single readings scatter.
Assay Endpoint: Potency

Compound | Result
CN1CCN2c3ccccc3Cc3ccccc3C2C1 (stereo not drawn) | 20 µM (active)
O=C(CCCN1CCC(O)(c2ccc(Cl)cc2)CC1)c1ccc(F)cc1 | 15.8 µM (active)
CCCCc1oc2ccccc2c1C(=O)c1cc(I)c(OCCN(CC)CC)c(I)c1 | 11.2 µM (active)
CN1CCN(C2=Nc3cc(Cl)ccc3Nc3ccccc32)CC1 | 35.5 µM (active)
CNCCCC12CCC(c3ccccc31)c1ccccc12 | 22.4 µM (active)
O=C1c2c(O)ccc(O)c2C(=O)c2c(NCCNCCO)ccc(NCCNCCO)c21 | 5.62 µM (active)
CN1CCC(=C2c3ccccc3C=Cc3ccccc32)CC1 | 20 µM (active)
CC[C@@]1(O)C(=O)OCc2c1cc1n(c2=O)Cc2cc3c(CN(C)C)c(O)ccc3nc2-1 | 3.55 µM (active)
